Sequence of the target: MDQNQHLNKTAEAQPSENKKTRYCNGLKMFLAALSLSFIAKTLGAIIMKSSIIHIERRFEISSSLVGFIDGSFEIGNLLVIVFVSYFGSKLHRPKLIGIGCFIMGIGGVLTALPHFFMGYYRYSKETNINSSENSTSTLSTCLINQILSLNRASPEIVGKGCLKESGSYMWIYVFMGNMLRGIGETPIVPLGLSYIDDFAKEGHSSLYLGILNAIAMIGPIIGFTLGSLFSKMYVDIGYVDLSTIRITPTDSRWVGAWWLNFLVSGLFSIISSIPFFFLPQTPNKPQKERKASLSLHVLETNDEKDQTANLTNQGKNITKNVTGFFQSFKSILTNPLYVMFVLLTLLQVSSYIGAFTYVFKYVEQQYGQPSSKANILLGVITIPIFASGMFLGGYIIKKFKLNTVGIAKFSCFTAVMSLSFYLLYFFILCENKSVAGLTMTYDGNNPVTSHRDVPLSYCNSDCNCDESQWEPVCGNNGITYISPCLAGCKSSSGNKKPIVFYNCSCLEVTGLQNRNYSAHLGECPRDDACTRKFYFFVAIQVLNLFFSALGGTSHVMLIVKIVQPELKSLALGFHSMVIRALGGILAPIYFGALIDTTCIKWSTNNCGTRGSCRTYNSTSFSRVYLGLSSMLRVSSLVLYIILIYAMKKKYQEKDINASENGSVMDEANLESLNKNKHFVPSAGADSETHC
readoutType: pIC50
Please report pIC50 as the negative decimal logarithm of the molar concentration, giving only the number.

Ask: Supply measured pIC50 of Cc1ccccc1C(=O)Nc1ccc(C(=O)Nc2ccc(Cl)cc2C(=O)CCC(=O)O)c(C)c1 in your reply.
Result: 6.59

---

Molecular target: BCRP (Homo sapiens)
Sequence (Q9UNQ0 whole entry): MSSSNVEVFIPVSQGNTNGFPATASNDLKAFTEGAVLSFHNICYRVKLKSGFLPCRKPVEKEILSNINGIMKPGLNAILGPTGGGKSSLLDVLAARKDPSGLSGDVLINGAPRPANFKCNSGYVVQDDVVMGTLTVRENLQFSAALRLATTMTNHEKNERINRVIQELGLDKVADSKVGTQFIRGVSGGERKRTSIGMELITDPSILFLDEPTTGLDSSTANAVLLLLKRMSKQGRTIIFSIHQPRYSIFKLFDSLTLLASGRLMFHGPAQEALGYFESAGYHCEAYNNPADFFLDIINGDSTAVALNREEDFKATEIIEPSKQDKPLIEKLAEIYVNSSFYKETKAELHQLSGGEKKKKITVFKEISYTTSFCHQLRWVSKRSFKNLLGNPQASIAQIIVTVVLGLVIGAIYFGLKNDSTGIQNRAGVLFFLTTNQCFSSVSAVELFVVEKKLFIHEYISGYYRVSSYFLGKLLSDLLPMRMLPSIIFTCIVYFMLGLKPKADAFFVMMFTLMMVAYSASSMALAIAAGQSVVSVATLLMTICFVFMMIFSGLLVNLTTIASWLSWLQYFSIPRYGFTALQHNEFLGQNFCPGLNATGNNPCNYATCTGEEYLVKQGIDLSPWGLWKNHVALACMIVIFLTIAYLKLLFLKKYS
readoutType: pIC50
# pIC50 is unitless: minus log10 of the molar concentration; print number only

Ask: # return recorded pIC50 for input Cc1ccccc1C(=O)Nc1ccc(C(=O)N2CCCC(O)c3cc(Cl)ccc32)c(C)c1 (stereo not shown)
Result: 5.08

---

Experiment: Earlier clinical data for tolvaptan and DM-4103 (PK, tolerability; data on file)
Assay type: in vivo, human
Conditions: human, in vivo
readoutType: half-life

Ask: Report half-life for Cc1ccccc1C(=O)Nc1ccc(C(=O)N2CCCC(O)c3cc(Cl)ccc32)c(C)c1 (stereo not shown) [tolvaptan]
Result: ~3.5 h

---

Biological target: (OAT)3 (Homo sapiens)
Sequence (Q8TCC7 whole entry): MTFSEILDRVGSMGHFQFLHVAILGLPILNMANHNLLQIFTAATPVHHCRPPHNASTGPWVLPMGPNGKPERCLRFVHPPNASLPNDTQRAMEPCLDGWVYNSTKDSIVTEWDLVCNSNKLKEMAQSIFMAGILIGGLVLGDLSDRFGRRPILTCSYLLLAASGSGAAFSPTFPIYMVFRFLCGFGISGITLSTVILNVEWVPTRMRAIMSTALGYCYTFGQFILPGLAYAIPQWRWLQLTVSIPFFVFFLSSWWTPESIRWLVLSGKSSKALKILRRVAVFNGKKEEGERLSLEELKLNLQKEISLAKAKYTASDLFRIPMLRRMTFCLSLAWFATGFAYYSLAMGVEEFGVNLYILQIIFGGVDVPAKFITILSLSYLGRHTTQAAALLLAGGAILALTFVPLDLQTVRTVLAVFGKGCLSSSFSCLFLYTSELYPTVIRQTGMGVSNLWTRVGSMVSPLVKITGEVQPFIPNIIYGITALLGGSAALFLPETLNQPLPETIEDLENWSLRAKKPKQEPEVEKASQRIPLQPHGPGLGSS
Experiment: Estrone 3-sulfate transport inhibition in HEK293 cells stably expressing human (OAT)3
Conditions: (OAT)3 overexpressing HEK293 cells; read-out: IC50 estimate, inhibition of estrone 3-sulfate transport
readoutType: IC50 (nM)
Report as a plain number; the unit nM is understood.

Ask: Specify IC50 for Cc1ccccc1C(=O)Nc1ccc(C(=O)Nc2ccc(Cl)cc2C(=O)CCC(=O)O)c(C)c1 [DM-4103] and stop.
Result: 425

Data provenance is patent US20230158041A1.
